# MEASUREMENT_TARGET: TetR (class B, Tn10) (UniProt P04483)
# Sequence (P04483 whole entry): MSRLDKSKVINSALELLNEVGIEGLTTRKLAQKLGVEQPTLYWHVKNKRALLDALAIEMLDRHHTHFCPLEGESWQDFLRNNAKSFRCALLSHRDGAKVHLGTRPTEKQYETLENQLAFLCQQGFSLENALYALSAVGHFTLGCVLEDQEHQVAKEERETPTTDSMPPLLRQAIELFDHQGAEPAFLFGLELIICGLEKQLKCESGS
# EXPERIMENTAL_DETAILS: TetR repression strength (sort-seq, GFP reporter) (relative to tetO2 = 1); higher = stronger repression
# CONDITIONS: E. coli
Over roughly 18,000 sequences, “TetR repression strength (sort-seq, GFP reporter)” has its median near 0.23; the highest 2% begin near 0.68. Many of the other results were omitted from the sample, so the highest values are more common in it than they were.
RESULT_TYPE: TetR repression strength

SEQUENCE_CONTENT | RESULT_TYPE | READING
TCCCGTGGAGTGGCCGAGA | TetR repression strength | 0.159
TCCCCTTCAGTGAAGGAGA | TetR repression strength | 0.702
TCCCCTCCAGTGGGGGAGA | TetR repression strength | 0.225
TCCCGCCTAGTCACTGAGA | TetR repression strength | 0.682
TCCCGTCGAGTGAGAGAGA | TetR repression strength | 0.396
TCCCGTGTAGTTGCAGAGA | TetR repression strength | 0.976
TCCCGTGTAGTTGGAGAGA | TetR repression strength | 0.191
TCCCGGCTAGTCGTTGAGA | TetR repression strength | 0.89
TCCCGCGTAGTGGTGGAGA | TetR repression strength | 0.256
TCCCGGTTAGTCGTTGAGA | TetR repression strength | 0.225
TCCCATATAGTTTGGGAGA | TetR repression strength | 0.175
TCCCGGCTAGTCACTGAGA | TetR repression strength | 0.256
TCCCGCTGAGTGATAGAGA | TetR repression strength | 0.483
TCCCGAGCAGTGAGAGAGA | TetR repression strength | 0.689
TCCCAATGAGTTCAGGAGA | TetR repression strength | 0.243
TCCCAGGGAGTCAGTGAGA | TetR repression strength | 0.319
TCCCCTTCAGTGGAGGAGA | TetR repression strength | 0.65
TCCCGAGCAGTGAGTGAGA | TetR repression strength | 0.507
TCCCAGATAGTCGAAGAGA | TetR repression strength | 0.115
TCCCGACAAGTGCAGGAGA | TetR repression strength | 0.684
TCCCTGAGAGTCGAAGAGA | TetR repression strength | 1.18
TCCCTTTTAGTGATAGAGA | TetR repression strength | 0.512
TCCCGAGTAGTCACTGAGA | TetR repression strength | 0.231
TCCCGGAGAGTCGTTGAGA | TetR repression strength | 0.118
TCCCTCGGAGTGTGCGAGA | TetR repression strength | 0.09
TCCCGGTGAGTGCGAGAGA | TetR repression strength | 0.189
TCCCGTGCAGTTGCAGAGA | TetR repression strength | 0.376
TCCCTGGGAGTCGAAGAGA | TetR repression strength | 0.196
TCCCGTCGAGTGAAAGAGA | TetR repression strength | 0.69
TCCCCCGTAGTAGGAGAGA | TetR repression strength | 0.197
TCCCGTCAAGTGCCGGAGA | TetR repression strength | 0.325
TCCCGAGAAGTCCGAGAGA | TetR repression strength | 0.474
TCCCTAATAGTGATAGAGA | TetR repression strength | 0.614
TCCCAATAAGTACGCGAGA | TetR repression strength | 0.348
TCCCGTTCAGTATGGGAGA | TetR repression strength | 0.106
TCCCGCGTAGTTGTTGAGA | TetR repression strength | 0.402
TCCCCCAAAGTGAAGGAGA | TetR repression strength | 0.104
TCCCAGGGAGTAGGGGAGA | TetR repression strength | 0.204
TCCCGAGCAGTGCAGGAGA | TetR repression strength | 0.226
TCCCCAGAAGTGCGTGAGA | TetR repression strength | 0.0661
TCCCGTGTAGTTGTTGAGA | TetR repression strength | 0.0138
TCCCTATTAGTGATAGAGA | TetR repression strength | 0.878
TCCCGCGTAGTAGGAGAGA | TetR repression strength | 0.691
TCCCGACCAGTGCGGGAGA | TetR repression strength | 0.222
TCCCGAGCAGTAACTGAGA | TetR repression strength | 0.149
TCCCCTCCAGTGAAGGAGA | TetR repression strength | 0.572
TCCCGGAGAGTCCTTGAGA | TetR repression strength | 0.295
TCCCGACAAGTAGCTGAGA | TetR repression strength | 0.187
TCCCGGCGAGTCGTTGAGA | TetR repression strength | 0.801
TCCCTGGAAGTAATCGAGA | TetR repression strength | 0.241
TCCCGATCAGTGATAGAGA | TetR repression strength | 0.778
TCCCGAGCAGTGTGTGAGA | TetR repression strength | 0.222
TCCCTCATAGTATGTGAGA | TetR repression strength | 0.257
TCCCGCGGAGTGGTTGAGA | TetR repression strength | 0.768
TCCCTCTGAGTCGAAGAGA | TetR repression strength | 0.0537
TCCCGCAGAGTATGTGAGA | TetR repression strength | 0.171
TCCCCATGAGTAATTGAGA | TetR repression strength | 0.334
TCCCGTCGAGTGAACGAGA | TetR repression strength | 0.242
TCCCGCGTAGTAGGGGAGA | TetR repression strength | 0.425
TCCCAATGAGTGATAGAGA | TetR repression strength | 0.685
TCCCGCTAAGTGATAGAGA | TetR repression strength | 0.69
TCCCTTATAGTCGCGGAGA | TetR repression strength | 0.142
TCCCGCGTAGTGGTTGAGA | TetR repression strength | 0.826
TCCCTTGGAGTCGTTGAGA | TetR repression strength | 0.304
TCCCAGTGAGTGATAGAGA | TetR repression strength | 0.528
TCCCACCAAGTACAGGAGA | TetR repression strength | 0.186
TCCCCTAAAGTGAAGGAGA | TetR repression strength | 0.721
TCCCATTAAGTGAGAGAGA | TetR repression strength | 0.478
TCCCGATGAGTCAGGGAGA | TetR repression strength | 0.174

---

# MEASUREMENT_TARGET: TetR (class B, Tn10)
# EXPERIMENTAL_DETAILS: TetR repression strength (sort-seq, GFP reporter) (relative to tetO2 = 1); higher = stronger repression
# CONDITIONS: E. coli
The full ranking holds about 18,000 sequences; the median of “TetR repression strength (sort-seq, GFP reporter)” is about 0.23, and the highest 2% start at about 0.68. The entries come from a sample that favours the highest values as a whole.
Where TetR repression strength equals or exceeds 0.4, the correct label is true; where it does not, the label is false.

SEQUENCE_CONTENT | CLASSIFICATION
TCCCGTATAGTCGGGGAGA | false
TCCCGGCAAGTGCTTGAGA | false
TCCCTTCGAGTCCGAGAGA | false
TCCCGTCCAGTGCTTGAGA | true
TCCCGTCAAGTGCTTGAGA | true
TCCCGACTAGTCAGGGAGA | true
TCCCGTCAAGTGGTTGAGA | false
TCCCTAGTAGTGTGGGAGA | false
TCCCCTTGAGTGTAAGAGA | true
TCCCTATAAGTCGTAGAGA | true
TCCCGCTCAGTGGTAGAGA | true
TCCCTAGCAGTTGAGGAGA | false
TCCCATGAAGTGTGTGAGA | false
TCCCGTCCAGTGCTGGAGA | false
TCCCTGGCAGTGTGTGAGA | false

---

TetR repression strength values by entry
# MEASUREMENT_TARGET: TetR (class B, Tn10) (UniProt P04483)
# EXPERIMENTAL_DETAILS: TetR repression strength (sort-seq, GFP reporter) (relative to tetO2 = 1); higher = stronger repression
# CONDITIONS: E. coli
The full ranking holds about 18,000 sequences; the median of “TetR repression strength (sort-seq, GFP reporter)” is about 0.23, and the highest 2% start at about 0.68. This is one part of a sample in which the highest values are shown more often than they occur.

SEQUENCE_CONTENT | TetR repression strength
TCCCTAAGAGTAAAAGAGA | 0.839
TCCCTATGAGTGACCGAGA | 0.604
TCCCGGGCAGTAATCGAGA | 0.121
TCCCTATCAGTGAACGAGA | 0.862
TCCCGATCAGTGACAGAGA | 0.742
TCCCTATCAGTTACCGAGA | 0.663
TCCCTATGAGTACCAGAGA | 0.857
TCCCTATGAGTTGAAGAGA | 0.326
TCCCTATGAGTAAAAGAGA | 0.24
TCCCTTGGAGTAACAGAGA | 0
TCCCTATCAGTGAAGGAGA | 0.51
TCCCGGGCAGTGCCTGAGA | 0.283
TCCCTAAGAGTACCAGAGA | 0.429
TCCCGACTAGTGATAGAGA | 0.632
TCCCTATGAGTTCCAGAGA | 1.01
TCCCTATGAGTTTAAGAGA | 1.03
